inhibition values, listed per item
# Assay System: Sulfhydryl oxidase 1 (Homo sapiens) (UniProt O00391)
# Sequence (O00391 whole entry, looked up): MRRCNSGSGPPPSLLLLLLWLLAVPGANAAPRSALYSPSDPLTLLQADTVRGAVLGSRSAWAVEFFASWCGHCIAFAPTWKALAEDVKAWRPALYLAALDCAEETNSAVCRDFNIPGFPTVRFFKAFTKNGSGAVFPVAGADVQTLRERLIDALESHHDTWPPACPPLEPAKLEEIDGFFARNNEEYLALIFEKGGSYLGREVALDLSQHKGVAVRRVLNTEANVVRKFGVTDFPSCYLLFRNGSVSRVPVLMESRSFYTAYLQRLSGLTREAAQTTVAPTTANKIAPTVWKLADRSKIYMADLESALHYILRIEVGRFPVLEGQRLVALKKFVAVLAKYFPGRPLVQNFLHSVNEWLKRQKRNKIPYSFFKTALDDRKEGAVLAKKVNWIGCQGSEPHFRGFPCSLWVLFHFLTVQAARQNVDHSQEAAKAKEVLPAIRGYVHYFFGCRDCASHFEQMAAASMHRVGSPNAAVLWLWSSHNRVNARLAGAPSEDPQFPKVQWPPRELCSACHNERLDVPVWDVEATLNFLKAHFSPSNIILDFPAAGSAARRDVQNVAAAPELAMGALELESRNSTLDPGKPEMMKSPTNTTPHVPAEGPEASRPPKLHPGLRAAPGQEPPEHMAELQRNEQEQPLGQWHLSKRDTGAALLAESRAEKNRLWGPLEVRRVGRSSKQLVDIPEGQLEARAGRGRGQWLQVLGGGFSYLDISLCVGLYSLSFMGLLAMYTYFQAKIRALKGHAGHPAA
# Assay Procedure: QSOX1 enzyme inhibitors, primary screen, biochemical, ROS-Glo H2O2 luminescence, HTS (AID 1347418)
# Assay Setup: recombinant QSOX1, ROS-Glo H2O2 luminescence; at 12.5 µM; hits give high values; active = any value above zero
Out of some 1,300 compounds screened, about 750 (58%) were called active. Some of the results follow.
Provide only the numeric value, understood in %.

Example entries begin here.
[[record]]
compound = "NC(N)=NCCC[C@H](N)C(=O)O"
assay_system = "Sulfhydryl oxidase 1 (Homo sapiens) (UniProt O00391)"
data_value = 6

[[record]]
compound = "CN(C)CCCN1c2ccccc2CCc2ccccc21"
assay_system = "Sulfhydryl oxidase 1 (Homo sapiens) (UniProt O00391)"
data_value = 11.1

[[record]]
compound = "CC(N)(C(=O)O)c1ccc(C(=O)O)cc1 (stereo not drawn)"
assay_system = "Sulfhydryl oxidase 1 (Homo sapiens) (UniProt O00391)"
data_value = -3.7


Lab book: inhibition of `O=Nc1ccc2oc(=O)ccc2c1` noted as 16.8

Lab book: inhibition of NC1(C(=O)O)CCc2cc(C(=O)O)ccc21 (stereo not drawn) noted as -2.9

* * *

# Assay System: Sulfhydryl oxidase 1 (Homo sapiens) (UniProt O00391)
# Assay Procedure: QSOX1 enzyme inhibitors, primary screen, biochemical, ROS-Glo H2O2 luminescence, HTS (AID 1347418)
# Assay Setup: recombinant QSOX1, ROS-Glo H2O2 luminescence; at 12.5 µM; hits give high values; active = any value above zero
Hit rate of the full screen: of about 1,300 compounds, about 750 (58%) were called active. The list shows a part of the results.
Bench note: report the call from 1 (active), 0 (inactive)

Solved cases (3 shown):
[[record]]
molecule = "COc1ccc(NC(=O)/C=C/c2ccc(Cl)cc2)cc1"
assay_system = "Sulfhydryl oxidase 1 (Homo sapiens) (UniProt O00391)"
assigned_class = 1

[[record]]
molecule = "Cc1[nH]c(=O)c(C#N)cc1-c1ccncc1"
assay_system = "Sulfhydryl oxidase 1 (Homo sapiens) (UniProt O00391)"
assigned_class = 0

[[record]]
molecule = "O=C1CCC(c2ccc(-n3ccnc3)cc2)=NN1"
assay_system = "Sulfhydryl oxidase 1 (Homo sapiens) (UniProt O00391)"
assigned_class = 1


Tell me the assay call for CCCCCC(O)CCCC(=O)O (stereo not drawn) please. 1

Tell me the assay call for NS(=O)(=O)c1cc2c(cc1Cl)NC(C1CC3C=CC1C3)NS2(=O)=O (stereo not drawn) please. 0

Tell me the assay call for `O=C(O)C1CCNCC1` please. 0

Tell me the assay call for `NC(=O)C(=O)O` please. 0

Tell me the assay call for `CC1(C)NC(=O)N(c2ccc([N+](=O)[O-])c(C(F)(F)F)c2)C1=O` please. 0

Tell me the assay call for `Cc1[nH]c(=O)c(C#N)cc1-c1ccc2nccn2c1` please. 1

Tell me the assay call for `Nc1ncnc2c1c(I)cn2[C@@H]1C[C@H](N)[C@@H](O)[C@H]1O` please. 1

Tell me the assay call for `O=C(O)[C@H]1NCCC[C@H]1C(=O)O` please. 0

Tell me the assay call for `c1cnc2c(c1)ccc1cccnc12` please. 0

Tell me the assay call for `N#CC(C#N)=C(N)/C(C#N)=C/c1ccc(O)cc1` please. 1

Tell me the assay call for O=C(O)C1CCCNC1 (stereo not drawn) please. 1

Tell me the assay call for CC(C)(C)NCC(O)COc1nsnc1N1CCOCC1 (stereo not drawn) please. 1

* * *

# Assay System: Sulfhydryl oxidase 1 (Homo sapiens) (UniProt O00391)
# Assay Procedure: QSOX1 enzyme inhibitors, primary screen, biochemical, ROS-Glo H2O2 luminescence, HTS (AID 1347418)
# Assay Setup: recombinant QSOX1, ROS-Glo H2O2 luminescence; at 12.5 µM; hits give high values; active = any value above zero
Among all 1,300 compounds or so, about 750 (58%) were called active. The list shows a part of the results.
inhibition values, listed per item
Provide only the numeric value, understood in %.

[[record]]
compound = "C[C@](N)(Cc1ccc(O)cc1)C(=O)O"
assay_system = "Sulfhydryl oxidase 1 (Homo sapiens) (UniProt O00391)"
reported_property = "inhibition"
unit_of_measurement = "%"
data_value = -2.7

[[record]]
compound = "C=CCN1CCc2c(cc(O)c(O)c2Br)[C@@H](c2ccccc2)C1"
assay_system = "Sulfhydryl oxidase 1 (Homo sapiens) (UniProt O00391)"
reported_property = "inhibition"
unit_of_measurement = "%"
data_value = 26.8

[[record]]
compound = "N=C(N)c1ccc(OCCCCCOc2ccc(C(=N)N)cc2)cc1"
assay_system = "Sulfhydryl oxidase 1 (Homo sapiens) (UniProt O00391)"
reported_property = "inhibition"
unit_of_measurement = "%"
data_value = 1.1

[[record]]
compound = "Cc1cn([C@H]2C=C[C@@H](CO)O2)c(=O)[nH]c1=O"
assay_system = "Sulfhydryl oxidase 1 (Homo sapiens) (UniProt O00391)"
reported_property = "inhibition"
unit_of_measurement = "%"
data_value = 0.2

[[record]]
compound = "CCN(CC)CCCC(C)Nc1c2ccc(Cl)cc2nc2ccc(OC)cc12 (stereo unspecified)"
assay_system = "Sulfhydryl oxidase 1 (Homo sapiens) (UniProt O00391)"
reported_property = "inhibition"
unit_of_measurement = "%"
data_value = 0.7

[[record]]
compound = "N=C(N)c1ccc(N)cc1"
assay_system = "Sulfhydryl oxidase 1 (Homo sapiens) (UniProt O00391)"
reported_property = "inhibition"
unit_of_measurement = "%"
data_value = 5.7

[[record]]
compound = "C=CCN1CCc2c(cc(O)c(O)c2Cl)C(c2ccccc2)C1 (stereo unspecified)"
assay_system = "Sulfhydryl oxidase 1 (Homo sapiens) (UniProt O00391)"
reported_property = "inhibition"
unit_of_measurement = "%"
data_value = 31.6

[[record]]
compound = "O=c1[nH]c(=O)n([C@H]2C[C@H](O)[C@@H](CO)O2)cc1Br"
assay_system = "Sulfhydryl oxidase 1 (Homo sapiens) (UniProt O00391)"
reported_property = "inhibition"
unit_of_measurement = "%"
data_value = 2.6


Result for `O=NN(CCCl)C(=O)NCCCl` , tested on Sulfhydryl oxidase 1 (Homo sapiens) (UniProt O00391), inhibition: -3.4

Result for `c1ccc(C(NCCNC(c2ccccc2)c2ccccc2)c2ccccc2)cc1` , tested on Sulfhydryl oxidase 1 (Homo sapiens) (UniProt O00391), inhibition: 6

Result for `NCCNC(=O)c1ncsc1-c1cccc(F)c1` , tested on Sulfhydryl oxidase 1 (Homo sapiens) (UniProt O00391), inhibition: 0.5

Result for CC(=O)O[C@H]1CC2(C)[C@@H](C[C@@H](O)[C@H]3[C@@]4(C)CC[C@@H](O)[C@@H](C)[C@@H]4CC[C@@]32C)/C1=C(/CCC=C(C)C)C(=O)O (stereo partly specified) , tested on Sulfhydryl oxidase 1 (Homo sapiens) (UniProt O00391), inhibition: 2.7

Result for `CC/C(=C(\c1ccccc1)c1ccc(OCCN(C)C)cc1)c1ccccc1` , tested on Sulfhydryl oxidase 1 (Homo sapiens) (UniProt O00391), inhibition: 2.2

Result for CC(N)(Cc1ccc(O)cc1)C(=O)O (stereo unspecified) , tested on Sulfhydryl oxidase 1 (Homo sapiens) (UniProt O00391), inhibition: 0

Result for CCOC(=O)C12CC1/C(=N/O)c1ccccc1O2 (stereo unspecified) , tested on Sulfhydryl oxidase 1 (Homo sapiens) (UniProt O00391), inhibition: 0.7

* * *

# Assay System: Sulfhydryl oxidase 1 (Homo sapiens) (UniProt O00391)
# Assay Procedure: QSOX1 enzyme inhibitors, primary screen, biochemical, ROS-Glo H2O2 luminescence, HTS (AID 1347418)
# Assay Setup: recombinant QSOX1, ROS-Glo H2O2 luminescence; at 12.5 µM; hits give high values; active = any value above zero
The campaign covered roughly 1,300 compounds. About 750 (58%) were called active. This is one part of the list.
Bench note: report the call from active, inactive

Solved cases (3 shown):
[[record]]
compound = "COc1ccc([C@@H]2Sc3ccccc3N(CCN(C)C)C(=O)[C@@H]2OC(C)=O)cc1"
assigned_class = "inactive"

[[record]]
compound = "N[C@@H](COP(=O)(O)O)C(=O)O"
assigned_class = "inactive"

[[record]]
compound = "c1ccc([C@H]2CN3CCSC3=N2)cc1"
assigned_class = "inactive"


Read the next record carefully.
Tell me the assay call for CC1CC2C3CCC4=CC(=O)C=C[C@]4(C)[C@@]3(F)[C@@H](O)C[C@]2(C)[C@@]1(O)C(=O)CO (stereo not given in full) please. active

* * *

# Assay System: Sulfhydryl oxidase 1 (Homo sapiens) (UniProt O00391)
# Assay Procedure: QSOX1 enzyme inhibitors, primary screen, biochemical, ROS-Glo H2O2 luminescence, HTS (AID 1347418)
# Assay Setup: recombinant QSOX1, ROS-Glo H2O2 luminescence; at 12.5 µM; hits give high values; active = any value above zero
Among all 1,300 compounds or so, about 750 (58%) were called active. This is one part of the list.
Bench note: report the call from 1 for active, -1 for inactive

Solved cases (5 shown):
[[record]]
entry_smiles = "Cc1cc(O)c2c(c1)C(=O)c1cc(O)cc(O)c1C2=O"
assay_system = "Sulfhydryl oxidase 1 (Homo sapiens) (UniProt O00391)"
assigned_class = 1

[[record]]
entry_smiles = "C#CCN(C)Cc1ccccc1"
assay_system = "Sulfhydryl oxidase 1 (Homo sapiens) (UniProt O00391)"
assigned_class = -1

[[record]]
entry_smiles = "N#C/C(=C\\c1ccc(O)c(O)c1)C(=O)NCc1ccccc1"
assay_system = "Sulfhydryl oxidase 1 (Homo sapiens) (UniProt O00391)"
assigned_class = 1

[[record]]
entry_smiles = "c1ccc2c(c1)CCC[C@H]2Nc1nc2ccccc2[nH]1"
assay_system = "Sulfhydryl oxidase 1 (Homo sapiens) (UniProt O00391)"
assigned_class = 1

[[record]]
entry_smiles = "COc1cc(OC)c(/C=C2/C(=O)Nc3ccccc32)c(OC)c1"
assay_system = "Sulfhydryl oxidase 1 (Homo sapiens) (UniProt O00391)"
assigned_class = -1


Read the next record carefully.
Tell me the assay call for `NC(=O)c1cnccn1` please. 1
